# subject.of.test: h-GABA-A α5β3γ2 (Homo sapiens, UniProt P18507+P31644)
# Sequence (P31644 32-462): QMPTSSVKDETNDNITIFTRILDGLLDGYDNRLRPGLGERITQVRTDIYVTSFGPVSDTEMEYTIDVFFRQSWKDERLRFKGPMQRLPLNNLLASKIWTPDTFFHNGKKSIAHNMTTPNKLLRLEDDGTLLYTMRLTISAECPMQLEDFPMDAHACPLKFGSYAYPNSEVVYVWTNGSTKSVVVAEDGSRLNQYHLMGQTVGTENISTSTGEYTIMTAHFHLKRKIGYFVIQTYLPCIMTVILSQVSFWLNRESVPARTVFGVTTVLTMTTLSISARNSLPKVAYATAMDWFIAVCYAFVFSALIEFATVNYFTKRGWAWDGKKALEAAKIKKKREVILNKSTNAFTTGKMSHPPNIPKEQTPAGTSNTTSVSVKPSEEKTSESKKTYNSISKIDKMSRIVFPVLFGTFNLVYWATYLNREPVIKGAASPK
# Sequence (P28472 26-473 partner): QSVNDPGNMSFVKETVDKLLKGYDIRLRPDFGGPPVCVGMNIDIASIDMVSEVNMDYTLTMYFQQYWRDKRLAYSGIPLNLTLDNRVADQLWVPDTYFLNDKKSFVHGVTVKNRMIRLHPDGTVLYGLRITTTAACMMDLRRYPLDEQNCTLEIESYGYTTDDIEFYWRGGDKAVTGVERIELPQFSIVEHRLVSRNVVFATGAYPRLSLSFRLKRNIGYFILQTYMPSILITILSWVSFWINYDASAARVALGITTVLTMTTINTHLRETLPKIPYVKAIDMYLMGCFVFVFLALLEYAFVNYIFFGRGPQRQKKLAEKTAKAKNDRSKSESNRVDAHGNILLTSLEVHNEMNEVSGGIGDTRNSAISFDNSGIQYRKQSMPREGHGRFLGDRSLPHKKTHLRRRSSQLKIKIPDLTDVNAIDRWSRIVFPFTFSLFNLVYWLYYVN
# Sequence (P18507 40-475): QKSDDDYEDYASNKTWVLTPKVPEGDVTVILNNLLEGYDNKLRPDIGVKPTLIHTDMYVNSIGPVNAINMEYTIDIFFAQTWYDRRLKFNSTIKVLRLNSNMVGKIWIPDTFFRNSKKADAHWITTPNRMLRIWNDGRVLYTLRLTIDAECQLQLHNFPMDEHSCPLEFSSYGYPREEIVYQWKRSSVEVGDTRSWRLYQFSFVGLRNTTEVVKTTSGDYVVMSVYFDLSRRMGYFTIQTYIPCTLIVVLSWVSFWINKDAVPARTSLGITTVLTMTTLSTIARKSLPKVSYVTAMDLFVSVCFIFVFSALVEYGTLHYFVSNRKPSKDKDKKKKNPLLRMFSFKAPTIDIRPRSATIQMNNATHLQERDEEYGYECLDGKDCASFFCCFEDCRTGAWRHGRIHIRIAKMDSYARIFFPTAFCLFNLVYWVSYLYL
# method.notes: Two-electrode voltage clamp electrophysiology in Xenopus laevis oocytes expressing GABAA receptors, modulation of GABA EC20 current
# Type: cell-based
# Design: host or cells: Xenopus laevis oocytes micro-injected with RNA transcripts of the subunits
# condition.details: test compound at approx. 30 fold its Ki, GABA at EC20; Table 1
Please respond with reported Fold increase h-GABA-A α5β3γ2 oocyte for every item in the list.
The answer should be written as a number, with no unit following it.

QUERY: Look up Fold increase h-GABA-A α5β3γ2 oocyte for this compound: COC1CN(c2cnn(Cc3c(-c4ncc(C(F)(F)F)cn4)noc3C)c(=O)c2)C1 [Example 229]
RESULT: 1.81

QUERY: Now try Cc1ccc(-c2noc(C)c2Cn2ncc(N3CC[C@@H](C)C3)cc2=O)cn1 [Example 178] .
RESULT: 2.58

QUERY: Then Cc1ccc(-c2noc(C)c2Cn2ncc(N3CC4(CC(OC(F)F)C4)C3)cc2=O)nn1 [Example 315] ?
RESULT: 2.4

QUERY: Please give the result for Cc1ccc(-c2noc(C)c2Cn2ncc(N3CC4(C[C@@H](O)CO4)C3)cc2=O)cn1 [Example 132] too.
RESULT: 2.19

QUERY: Same question for Cc1onc(-c2ccc(Cl)cc2)c1Cn1ncc(N2CC3(CCCO3)C2)cc1=O [Example 162] please.
RESULT: 1.4

QUERY: Same question, Cc1ccc(-c2noc(C)c2Cn2ncc(N3CC4(CC(F)CCO4)C3)cc2=O)cn1 (single isomer, unassigned) [Example 273] this time
RESULT: 2.26

QUERY: And Cc1cc(-c2noc(C)c2Cn2ncc(N3CC4(C3)CN(C3CC3)C4)cc2=O)no1 [Example 87] ?
RESULT: 2.05

QUERY: Field entry: Cc1ccc(-c2noc(C)c2Cn2ncc(N3CC(Oc4ccc(F)cc4)C3)cc2=O)cn1 [Example 123]
RESULT: 2.52
